# target under test: recombinant human VAP-1 (Homo sapiens, UniProt Q16853)
# Construct: purchased R&D systems
# Sequence (Q16853 whole entry): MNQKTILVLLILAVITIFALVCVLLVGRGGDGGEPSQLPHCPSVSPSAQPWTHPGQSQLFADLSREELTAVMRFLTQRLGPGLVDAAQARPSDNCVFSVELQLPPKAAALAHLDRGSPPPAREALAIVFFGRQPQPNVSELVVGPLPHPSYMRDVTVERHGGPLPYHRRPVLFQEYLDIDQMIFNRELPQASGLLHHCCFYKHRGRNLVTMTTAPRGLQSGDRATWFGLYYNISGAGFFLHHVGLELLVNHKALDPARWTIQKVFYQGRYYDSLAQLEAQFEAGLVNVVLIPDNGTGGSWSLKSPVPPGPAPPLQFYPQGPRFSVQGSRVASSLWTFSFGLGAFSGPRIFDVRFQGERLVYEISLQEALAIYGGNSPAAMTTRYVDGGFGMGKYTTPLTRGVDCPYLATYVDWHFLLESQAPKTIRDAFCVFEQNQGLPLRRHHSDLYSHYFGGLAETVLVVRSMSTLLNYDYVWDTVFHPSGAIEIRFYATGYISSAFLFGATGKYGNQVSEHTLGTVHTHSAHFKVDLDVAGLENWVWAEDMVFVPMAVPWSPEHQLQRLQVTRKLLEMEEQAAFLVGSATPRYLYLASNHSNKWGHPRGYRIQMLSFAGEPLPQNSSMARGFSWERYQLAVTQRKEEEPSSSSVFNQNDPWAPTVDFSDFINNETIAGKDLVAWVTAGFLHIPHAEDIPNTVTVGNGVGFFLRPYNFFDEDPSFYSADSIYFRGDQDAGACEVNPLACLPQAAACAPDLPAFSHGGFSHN
# test summary: Activity on recombinant human VAP-1, Amplex Red HRP-coupled hydrogen peroxide assay, benzylamine substrate
# Format: biochemical
# experimental parameters: recombinant human VAP-1, benzylamine substrate, 30 min preincubation at 37° C.; read-out: Inhibitory Activity (IC50, nM) human VAP-1
Where a name gives a salt, the structure may show the parent alone.
property measured: IC50 (nM)
Answers are plain numbers, in nM.

{"columns": ["compound", "target under test", "IC50 [nM]"],
 "data": [
  ["NC/C(=C\\F)Cn1ncn(-c2ccc(F)cc2)c1=O [Example 6, hydrochloride]", "recombinant human VAP-1 (Homo sapiens, UniProt Q16853)", 3.7],
  ["Cc1cc(-n2cnn(C/C(=C/F)CN)c2=O)cnc1-c1ccc2sc(N)nc2c1 [Example 118, hydrochloride]", "recombinant human VAP-1 (Homo sapiens, UniProt Q16853)", 0.34],
  ["COc1cc(-c2cccc(-n3cnn(C/C(=C/F)CN)c3=O)c2)ccn1 [Example 79, hydrochloride]", "recombinant human VAP-1 (Homo sapiens, UniProt Q16853)", 0.47],
  ["NC/C(=C\\F)Cn1ncn(-c2cccc(-c3ccc(Cl)nc3)c2)c1=O [Example 85, hydrochloride]", "recombinant human VAP-1 (Homo sapiens, UniProt Q16853)", 0.62],
  ["NC/C(=C\\F)Cn1ncn(-c2ccc(F)c(F)c2)c1=O [Example 10, hydrochloride]", "recombinant human VAP-1 (Homo sapiens, UniProt Q16853)", 2.4],
  ["NC/C(=C\\F)Cn1ncn(-c2cccc(-c3ccc4nonc4c3)c2)c1=O [Example 96, hydrochloride]", "recombinant human VAP-1 (Homo sapiens, UniProt Q16853)", 0.51],
  ["NC/C(=C\\F)Cn1ncn(-c2cccc(-c3ccc4c(c3)OCO4)c2)c1=O [Example 93, hydrochloride]", "recombinant human VAP-1 (Homo sapiens, UniProt Q16853)", 0.48],
  ["Cc1ccc(-c2cccc(-n3cnn(C/C(=C/F)CN)c3=O)c2)c2cccnc12 [Example 105, hydrochloride]", "recombinant human VAP-1 (Homo sapiens, UniProt Q16853)", 0.83]
]}

For every listed record, write down its IC50.
1. CS(=O)(=O)c1ccc(-c2cccc(-n3cnn(C/C(=C/F)CN)c3=O)c2)cc1 [Example 54, hydrochloride]
2. Cc1cc(Br)cnc1-n1cnn(C/C(=C\F)CN)c1=O [Example 31, hydrochloride]
3. NC/C(=C\F)Cn1ncn(-c2ccc(-c3ccc(-c4nnc[nH]4)cc3)cc2F)c1=O
4. Cc1cc(-c2ccc3sc(N)nc3c2)ncc1-n1cnn(C/C(=C/F)CN)c1=O
5. Cc1cc(-n2cnn(C/C(=C/F)CN)c2=O)ccc1Br [Example 16, hydrochloride]
6. NC/C(=C/F)Cn1ncn(-c2cccc(Br)c2)c1=O [Example 3, hydrochloride]
7. NC/C(=C\F)Cn1ncn(-c2cccc(-c3ccc(N4CCOCC4)nc3)c2)c1=O [Example 86, hydrochloride]

Completion:
0.4
47
0.62
1.6
0.74
2.5
0.62

Each compound below has a reported value. Please supply its IC50.
1. NC/C(=C\F)Cn1ncn(-c2cccc(-c3ccc4sc(N)nc4c3)c2)c1=O [Example 99, hydrochloride]
2. NC/C(=C\F)Cn1ncn(-c2cccc(-c3cncc4ccccc34)c2)c1=O [Example 104, hydrochloride]
3. NC/C(=C\F)Cn1ncn(-c2ccc(Br)c(F)c2)c1=O [Example 14, hydrochloride]
4. Cc1cc(-c2cccc(-c3nnn[nH]3)c2)cnc1-n1cnn(C/C(=C/F)CN)c1=O
5. COc1cc(N2CCOCC2)c(Br)cc1-n1cnn(C/C(=C/F)CN)c1=O [Example 47, hydrochloride]
6. NC/C(=C\F)Cn1ncn(-c2cccc(-c3ccc4cn[nH]c4c3)c2)c1=O [Example 97, hydrochloride]
7. CC(=O)Nc1nc2cc(-c3cc(C)c(-n4cnn(C/C(=C/F)CN)c4=O)cn3)ccc2s1
8. Cc1cc(-n2cnn(C/C(=C/F)CN)c2=O)cnc1-c1ccc(-c2nc[nH]n2)cc1

Completion:
1. 0.82
2. 3
3. 0.96
4. 3.3
5. 2.8
6. 0.68
7. 0.82
8. 1.5

Batch lookup, IC50 per entry.
1. NC/C(=C\F)Cn1ncn(-c2cccc(-c3ccc(OC(F)(F)F)cc3)c2)c1=O [Example 50, hydrochloride]
2. Cc1cc(-n2cnn(C/C(=C/F)CN)c2=O)ncc1Br [Example 34, hydrochloride]
3. CC(=O)c1ccc(-c2cccc(-n3cnn(C/C(=C/F)CN)c3=O)c2)s1 [Example 49, hydrochloride]
4. NC/C(=C\F)Cn1ncn(-c2ccc(Br)cc2F)c1=O [Example 12, hydrochloride]
5. NC/C(=C/F)Cn1ncn(-c2cc(F)c(Br)c(F)c2)c1=O

Completion:
1: 1; 2: 0.6; 3: 0.2; 4: 0.75; 5: 3.3
